Values from ChEMBL document CHEMBL3085706

experiment: Selectivity index, ratio of IC50 for African green monkey Vero cells to IC50 for extracellular trypomastigote form of Trypanosoma cruzi IRHOD/CO/2008/SN3; format: toxicity, cell-based; details: read-out: Ratio IC50
Tag: 1 if measured selectivity ratio is not below 20, -1 if it is.

Solved entries:
NCCCNCCN1CCNCc2cccc(n2)CNCC1 :: -1
Cl.c1cncc(CNCCN2CCNCc3cccc(n3)CNCC2)c1 :: 1
c1cc2nc(c1)CNCCN(CCNCc1cccc3ccccc13)CCNC2 :: -1

Query string: Record Br.NCCN1CCNCc2cccc(n2)CNCC1 ; criterion: selectivity ratio no lower than 20. Met?
Result string: -1

---

The entries below are paired with their reported pIC50.
tested on: Vero; assay: Cytotoxicity against African green monkey Vero cells after 72 hrs by flow cytometric analysis; assay type: cell-based; conditions: Chlorocebus sabaeus
Kindly note that pIC50 refers to -log10 of the concentration in mol/L and answer with the value alone.

Sample records with pIC50:
Cl.c1ccc(CNCCN2CCNCc3cccc(n3)CNCC2)nc1 :: 3.44
Br.NCCN1CCNCc2cccc(n2)CNCC1 :: 3.57
NCCCNCCN1CCNCc2cccc(n2)CNCC1 :: 3.78
c1cc2nc(c1)CNCCN(CCNCc1cccc3ccccc13)CCNC2 :: 3.49

Now take the following molecule into account.
The molecule Cl.c1cncc(CNCCN2CCNCc3cccc(n3)CNCC2)c1 , when measured on Vero, yielded pIC50 of 3.37

---

test: Selectivity index, ratio of IC50 for African green monkey Vero cells to IC50 for extracellular epimastigote form of Trypanosoma cruzi IRHOD/CO/2008/SN3; assay type: toxicity, cell-based; details: read-out: Ratio IC50
Quantity Kind: selectivity ratio

For c1cc2nc(c1)CNCCN(CCNCc1cccc3ccccc13)CCNC2 the compound record lists selectivity ratio as 31.2

For Cl.c1cncc(CNCCN2CCNCc3cccc(n3)CNCC2)c1 the compound record lists selectivity ratio as 52.7

For Br.NCCN1CCNCc2cccc(n2)CNCC1 the compound record lists selectivity ratio as 41.4

For NCCCNCCN1CCNCc2cccc(n2)CNCC1 the compound record lists selectivity ratio as 8

For Cl.c1ccc(CNCCN2CCNCc3cccc(n3)CNCC2)nc1 the compound record lists selectivity ratio as 42.2

---

experiment: Selectivity index, ratio of IC50 for African green monkey Vero cells to IC50 for intracellular amastigote form of Trypanosoma cruzi IRHOD/CO/2008/SN3; format: toxicity, cell-based; conditions: read-out: Ratio IC50
The entries below are paired with their reported selectivity ratio.
Please state the value as a number alone, without comment.

Sample records with selectivity ratio:
Br.NCCN1CCNCc2cccc(n2)CNCC1 :: 34.5
c1cc2nc(c1)CNCCN(CCNCc1cccc3ccccc13)CCNC2 :: 20.2
NCCCNCCN1CCNCc2cccc(n2)CNCC1 :: 8.3
Cl.c1cncc(CNCCN2CCNCc3cccc(n3)CNCC2)c1 :: 44.8

Now take the following compound into account.
For Cl.c1ccc(CNCCN2CCNCc3cccc(n3)CNCC2)nc1 the compound record lists selectivity ratio as 36.4

---

tested on: Trypanosoma cruzi; assay: Trypanocidal activity against amastigote form of Trypanosoma cruzi IRHOD/CO/2008/SN3 infected in African green monkey Vero cells assessed as inhibition of parasite infection rate at IC25 preincubated for 12 hrs followed by compound washout measured after 10 days by Giemsa staining-based microscopic analysis relative to control; type: functional
Quantity Kind: inhibition (INH) (%)
Your answer should be a plain number; it is taken to be in %.

Cl.c1ccc(CNCCN2CCNCc3cccc(n3)CNCC2)nc1 :: 77
Cl.c1cncc(CNCCN2CCNCc3cccc(n3)CNCC2)c1 :: 86
Br.NCCN1CCNCc2cccc(n2)CNCC1 :: 73

For O=C(Cn1ccnc1[N+](=O)[O-])NCc1ccccc1 the compound record lists inhibition (INH) as 39
